log10 IC50: recorded values
target: Squalene synthase (Rattus norvegicus); assay: Tested in vitro for the inhibition of Squalene synthase activity, measured using juvenile male rat liver microsomes; design: species or system Microsome
parameterMeasured: log10 IC50 (log10 of the value in µM)

# compound, log10 IC50
data = [
    ("CC[C@H](C)C[C@H](C)CCC(=O)O[C@@H]1[C@@H](O)[C@@]2(CC/C(C)=C/[C@@H](C)Cc3ccccc3)O[C@H](C(=O)O)[C@@](O)(C(=O)O)[C@]1(C(=O)O)O2", -1.20),
    ("CC[C@H](C)C[C@H](C)CCC(=O)O[C@@H]1[C@@H](O)[C@@]2(CCC(C)C(=O)[C@@H](C)Cc3ccccc3)O[C@H](C(=O)O)[C@@](O)(C(=O)O)[C@]1(C(=O)O)O2 (single isomer, unassigned; isomer 2)", -0.89),
    ("CC[C@H](C)C[C@H](C)CCC(=O)O[C@@H]1[C@@H](O)[C@@]2(CCC(=O)[C@H](O)[C@@H](C)Cc3ccccc3)O[C@H](C(=O)O)[C@@](O)(C(=O)O)[C@]1(C(=O)O)O2", -2.30),
    ("CC[C@H](C)C[C@H](C)CCC(=O)O[C@@H]1[C@@H](O)[C@@]2(CCC(C)C(=O)[C@@H](C)Cc3ccccc3)O[C@H](C(=O)O)[C@@](O)(C(=O)O)[C@]1(C(=O)O)O2 (stereo in doubt)", -1.80),
    ("CC[C@H](C)C[C@H](C)CCC(=O)O[C@@H]1[C@@H](O)[C@@]2(C/C=C(\\C)[C@H](O)[C@@H](C)Cc3ccccc3)O[C@H](C(=O)O)[C@@](O)(C(=O)O)[C@]1(C(=O)O)O2", -1.77),
    ("C=C(CC[C@]12O[C@H](C(=O)O)[C@@](O)(C(=O)O)[C@](C(=O)O)(O1)[C@H](OC(=O)CC[C@@H](C)C[C@@H](C)CC)[C@H]2O)[C@H](O)[C@@H](C)Cc1ccccc1", -2.70),
    ("CC[C@H](C)C[C@H](C)CCC(=O)O[C@@H]1[C@@H](O)[C@@]2(CCC(O)[C@H](O)[C@@H](C)Cc3ccccc3)O[C@H](C(=O)O)[C@@](O)(C(=O)O)[C@]1(C(=O)O)O2 (some centres not stated)", -2.40),
]

====

Target: UniProt Q02769
Sequence (Q02769 whole entry): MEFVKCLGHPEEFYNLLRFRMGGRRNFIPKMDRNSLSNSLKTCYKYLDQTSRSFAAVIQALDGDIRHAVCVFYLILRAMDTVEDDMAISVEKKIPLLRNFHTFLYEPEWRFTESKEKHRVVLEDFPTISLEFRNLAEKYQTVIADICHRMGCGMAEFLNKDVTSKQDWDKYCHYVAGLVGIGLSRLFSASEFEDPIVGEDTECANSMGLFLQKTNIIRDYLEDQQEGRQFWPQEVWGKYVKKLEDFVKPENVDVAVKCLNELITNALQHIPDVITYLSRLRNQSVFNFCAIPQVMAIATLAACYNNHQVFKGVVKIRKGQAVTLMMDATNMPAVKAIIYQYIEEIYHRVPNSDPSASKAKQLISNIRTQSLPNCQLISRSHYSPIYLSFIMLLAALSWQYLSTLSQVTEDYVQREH
Experiment: Inhibition of Squalene synthase activity in juvenile male rat liver microsomes
Parameters: species or system Microsome
Listed next: entries and their corresponding IC50.
parameterMeasured: IC50 (nM)

# molecule, parameterMeasured, ltGtEq, reportedMeasurement
data = [
    ("C=C(CC[C@]12O[C@H](C(=O)O)[C@@](O)(C(=O)O)[C@](C(=O)O)(O1)[C@H](OC(=O)/C=C/[C@@H](C)C[C@@H](C)CC)[C@H]2O)[C@H](O)[C@@H](C)Cc1ccccc1", "IC50", "=", 5),
    ("CCCCCCC(=O)CCC[C@]12O[C@H](C(=O)O)[C@@](O)(C(=O)O)[C@](C(=O)O)(O1)[C@H](OC(=O)CC[C@@H](C)C[C@@H](C)CC)[C@H]2O", "IC50", ">", 500),
    ("CC[C@H](C)C[C@H](C)CCC(=O)O[C@@H]1[C@@H](O)[C@@]2(CCCC(=O)C(C)Cc3ccccc3)O[C@H](C(=O)O)[C@@](O)(C(=O)O)[C@]1(C(=O)O)O2 (stereo not given in full)", "IC50", "=", 29),
    ("CC[C@H](C)C[C@H](C)CCC(=O)O[C@@H]1[C@@H](O)[C@@]2(CCO)O[C@H](C(=O)O)[C@@](O)(C(=O)O)[C@]1(C(=O)O)O2", "IC50", ">", 500),
    ("CC[C@H](C)C[C@H](C)CCC(=O)O[C@@H]1[C@@H](O)[C@@]2(CCCC(=O)CCCc3ccccc3)O[C@H](C(=O)O)[C@@](O)(C(=O)O)[C@]1(C(=O)O)O2", "IC50", "=", 152),
    ("CC[C@H](C)C[C@H](C)CCC(=O)O[C@@H]1[C@@H](O)[C@@]2(CCC(C)=O)O[C@H](C(=O)O)[C@@](O)(C(=O)O)[C@]1(C(=O)O)O2", "IC50", "=", 470),
    ("CC[C@H](C)C[C@H](C)CCC(=O)O[C@@H]1[C@@H](O)[C@@]2(CCCC(=O)CCc3ccccc3)O[C@H](C(=O)O)[C@@](O)(C(=O)O)[C@]1(C(=O)O)O2", "IC50", "=", 56),
    ("CC[C@H](C)C[C@H](C)CCC(=O)O[C@@H]1[C@@H](O)[C@@]2(CCC(C)C(=O)CCc3ccccc3)O[C@H](C(=O)O)[C@@](O)(C(=O)O)[C@]1(C(=O)O)O2 (stereo not given in full)", "IC50", "=", 48),
    ("CCCC(=O)CCC[C@]12O[C@H](C(=O)O)[C@@](O)(C(=O)O)[C@](C(=O)O)(O1)[C@H](OC(=O)CC[C@@H](C)C[C@@H](C)CC)[C@H]2O", "IC50", ">", 500),
    ("CC[C@H](C)C[C@H](C)CCC(=O)O[C@@H]1[C@@H](O)[C@@]2(CCCC(=O)Cc3ccccc3)O[C@H](C(=O)O)[C@@](O)(C(=O)O)[C@]1(C(=O)O)O2", "IC50", ">", 500),
]

Ref: ChEMBL document CHEMBL1127148
